test system: LNCaP; assay: Percentage PSA reduction relative to vehicle control following intraperitoneal injection of conjugate dose for 5 consecutive days to nude mice bearing LNCaP tumor xenografts; type: functional, Homo sapiens
*1 amine or outer side, *2 acyl side, *3 side chain or, on linkers, in order; H or OH if unused. Where a SMILES comes first, the peptide text is derived from it. [ ]: non-standard residue; d: D form. The star is where a group is joined. Doxorubicin(3'-N) = COc1cccc2c1C(=O)c1c(O)c3c(c(O)c1C2=O)C[C@@](O)(C(=O)CO)C[C@@H]3O[C@H]1C[C@H](N*)[C@H](O)[C@H](C)O1; X1 = COc1cccc2c1C(=O)c1c(O)c3c(c(O)c1C2=O)C[C@@](O)(C(=O)CO)C[C@@H]3OC1CC(N*)C(O)C(C)O1; Glutaryl = O=C(CCCC(=O)[*:2])[*:1]; Hyp = O=C(O)[C@@H]1C[C@@H](O)CN1; Chg = N[C@H](C(=O)O)C1CCCCC1
property-name: Reduction (%)
Give the value, in units of %, as a plain number.

Per the records, this compound ( COc1cccc2c1C(=O)c1c(O)c3c(c(O)c1C2=O)C[C@@](O)(C(=O)CO)C[C@@H]3OC1CC(NC(=O)[C@H](CC(C)C)NC(=O)[C@H](CO)NC(=O)[C@H](CCC(N)=O)NC(=O)[C@@H](NC(=O)[C@H](CO)NC(=O)[C@H](C)NC(=O)[C@H](CCCCN)NC(C)=O)C2CCCCC2)C(O)C(C)O1 (stereo partly drawn) (Ac-KAS[Chg]QSL-X1) ) has Reduction equal to 95

Per the records, this compound ( COc1cccc2c1C(=O)c1c(O)c3c(c(O)c1C2=O)C[C@@](O)(C(=O)CO)C[C@@H]3O[C@H]1C[C@H](NC(=O)[C@H](CC(C)C)NC(=O)[C@H](CO)NC(=O)[C@H](CCC(N)=O)NC(=O)[C@@H](NC(=O)[C@H](CO)NC(=O)[C@H](C)NC(=O)[C@@H]2C[C@@H](O)CN2C(=O)CCCC(=O)O)C2CCCCC2)[C@H](O)[C@H](C)O1 (Glutaryl-[Hyp]AS[Chg]QSL-{Doxorubicin(3'-N)}) ) has Reduction equal to 95

Per the records, this compound ( COc1cccc2c1C(=O)c1c(O)c3c(c(O)c1C2=O)C[C@@](O)(C(=O)CO)C[C@@H]3OC1CC(NC(=O)[C@H](CC(C)C)NC(=O)[C@H](CO)NC(=O)[C@H](CO)NC(=O)[C@H](CO)NC(=O)[C@H](CCC(N)=O)NC(=O)[C@H](Cc2ccc(O)cc2)NC(=O)[C@H](CCCCN)NC(C)=O)C(O)C(C)O1 (stereo partly drawn) (Ac-KYQSSSL-X1) ) has Reduction equal to 90

----------
Exercise: for every item that follows, state its recorded Reduction.
test system: LNCaP; assay: Percentage PSA reduction relative to vehicle control following intraperitoneal injection of conjugate dose for 5 consecutive days to nude mice bearing LNCaP tumor xenografts; format: functional, Homo sapiens
Give the value, in units of %, as a plain number.

Per the records, this molecule ( COc1cccc2c1C(=O)c1c(O)c3c(c(O)c1C2=O)C[C@@](O)(C(=O)CO)C[C@@H]3OC1CC(NC(=O)[C@H](CC(C)C)NC(=O)[C@H](CO)NC(=O)[C@@H](CCC(N)=O)NC(=O)[C@@H](NC(=O)[C@H](CO)NC(=O)[C@H](C)NC(=O)C2CC(O)CN2C(C)=O)C2CCCCC2)C(O)C(C)O1 (some centres not stated) ) has Reduction equal to 96

Per the records, this molecule ( COc1cccc2c1C(=O)c1c(O)c3c(c(O)c1C2=O)C[C@@](O)(C(=O)CO)C[C@@H]3OC1CC(NC(=O)[C@H](CC(C)C)NC(=O)[C@H](CO)NC(=O)[C@H](CCC(N)=O)NC(=O)[C@H](Cc2ccc(O)cc2)NC(=O)[C@H](CO)NC(=O)[C@H](C)NC(=O)[C@H](CCCN)NC(C)=O)C(O)C(C)O1 (some centres not stated) ) has Reduction equal to 70

----------
test system: PSA; assay: Time required for PSA to hydrolyze 50% (t1/2); assay type: ADME; conditions: PSA (enzyme)
*1 amine or outer side, *2 acyl side, *3 side chain or, on linkers, in order; H or OH if unused. Where a SMILES comes first, the peptide text is derived from it. [ ]: non-standard residue; d: D form. The star is where a group is joined. Doxorubicin(3'-N) = COc1cccc2c1C(=O)c1c(O)c3c(c(O)c1C2=O)C[C@@](O)(C(=O)CO)C[C@@H]3O[C@H]1C[C@H](N*)[C@H](O)[C@H](C)O1; X1 = COc1cccc2c1C(=O)c1c(O)c3c(c(O)c1C2=O)C[C@@](O)(C(=O)CO)C[C@@H]3OC1CC(N*)C(O)C(C)O1; Glutaryl = O=C(CCCC(=O)[*:2])[*:1]; Hyp = O=C(O)[C@@H]1C[C@@H](O)CN1; Chg = N[C@H](C(=O)O)C1CCCCC1; Orn = NCCC[C@H](N)C(=O)O
property-name: half-life (h)
Give the value, in units of h, as a plain number.

Per the records, this compound ( COc1cccc2c1C(=O)c1c(O)c3c(c(O)c1C2=O)C[C@@](O)(C(=O)CO)C[C@@H]3OC1CC(NC(=O)[C@H](CC(C)C)NC(=O)[C@H](CO)NC(=O)[C@H](CCC(N)=O)NC(=O)[C@H](Cc2ccc(O)cc2)NC(=O)[C@H](CO)NC(=O)[C@H](C)NC(=O)[C@H](CCCN)NC(C)=O)C(O)C(C)O1 (stereo not given in full) ) has half-life equal to 0.667

Per the records, this compound ( COc1cccc2c1C(=O)c1c(O)c3c(c(O)c1C2=O)C[C@@](O)(C(=O)CO)C[C@@H]3OC1CC(NC(=O)[C@H](CC(C)C)NC(=O)[C@H](CO)NC(=O)[C@H](CO)NC(=O)[C@H](CO)NC(=O)[C@H](CCC(N)=O)NC(=O)[C@H](Cc2ccc(O)cc2)NC(=O)[C@H](CCCCN)NC(C)=O)C(O)C(C)O1 (stereo not given in full) (Ac-KYQSSSL-X1) ) has half-life equal to 1

Per the records, this compound ( COc1cccc2c1C(=O)c1c(O)c3c(c(O)c1C2=O)C[C@@](O)(C(=O)CO)C[C@@H]3O[C@H]1C[C@H](NC(=O)[C@H](CC(C)C)NC(=O)[C@H](CO)NC(=O)[C@H](CCC(N)=O)NC(=O)[C@@H](NC(=O)[C@H](CO)NC(=O)[C@H](C)NC(=O)[C@@H]2C[C@@H](O)CN2C(=O)CCCC(=O)O)C2CCCCC2)[C@H](O)[C@H](C)O1 (Glutaryl-[Hyp]AS[Chg]QSL-{Doxorubicin(3'-N)}) ) has half-life equal to 0.5

Per the records, this compound ( COc1cccc2c1C(=O)c1c(O)c3c(c(O)c1C2=O)C[C@@](O)(C(=O)CO)C[C@@H]3OC1CC(NC(=O)[C@H](CC(C)C)NC(=O)[C@H](CO)NC(=O)[C@H](CO)NC(=O)[C@H](CO)NC(=O)[C@H](CCC(N)=O)NC(=O)[C@H](Cc2ccc(O)cc2)NC(=O)[C@H](CCCN)NC(C)=O)C(O)C(C)O1 (stereo not given in full) (Ac-[Orn]YQSSSL-X1) ) has half-life equal to 2

----------
test system: PSA; assay: Time required for PSA to hydrolyze 50% (t1/2); type: ADME; details: PSA (enzyme)
Where a SMILES comes first, the peptide text is derived from it. [ ]: non-standard residue; d: D form. The star is where a group is joined. Doxorubicin(3'-N) = COc1cccc2c1C(=O)c1c(O)c3c(c(O)c1C2=O)C[C@@](O)(C(=O)CO)C[C@@H]3O[C@H]1C[C@H](N*)[C@H](O)[C@H](C)O1; X1 = COc1cccc2c1C(=O)c1c(O)c3c(c(O)c1C2=O)C[C@@](O)(C(=O)CO)C[C@@H]3OC1CC(N*)C(O)C(C)O1; Chg = N[C@H](C(=O)O)C1CCCCC1
Exercise: for every item that follows, state its recorded half-life.
Give the value, in units of min, as a plain number.

Per the records, this molecule ( COc1cccc2c1C(=O)c1c(O)c3c(c(O)c1C2=O)C[C@@](O)(C(=O)CO)C[C@@H]3OC1CC(NC(=O)[C@H](CC(C)C)NC(=O)[C@H](CO)NC(=O)[C@H](CCC(N)=O)NC(=O)[C@@H](NC(=O)[C@H](CO)NC(=O)[C@H](C)NC(=O)[C@@H]2CCCN2C(C)=O)C2CCCCC2)C(O)C(C)O1 (stereo partly specified) (Ac-PAS[Chg]QSL-X1) ) has half-life equal to 45

Per the records, this molecule ( COc1cccc2c1C(=O)c1c(O)c3c(c(O)c1C2=O)C[C@@](O)(C(=O)CO)C[C@@H]3OC1CC(NC(=O)[C@H](CC(C)C)NC(=O)[C@H](CO)NC(=O)[C@@H](CCC(N)=O)NC(=O)[C@@H](NC(=O)[C@H](CO)NC(=O)[C@H](C)NC(=O)C2CC(O)CN2C(C)=O)C2CCCCC2)C(O)C(C)O1 (stereo partly specified) ) has half-life equal to 20

Per the records, this molecule ( COc1cccc2c1C(=O)c1c(O)c3c(c(O)c1C2=O)C[C@@](O)(C(=O)CO)C[C@@H]3OC1CC(NC(=O)[C@H](CC(C)C)NC(=O)[C@H](CO)NC(=O)[C@H](CCC(N)=O)NC(=O)[C@H](Cc2ccc(O)cc2)NC(=O)[C@H](CO)NC(=O)[C@H](C)NC(=O)[C@H](CCCCN)NC(C)=O)C(O)C(C)O1 (stereo partly specified) (Ac-KASYQSL-X1) ) has half-life equal to 30

Per the records, this molecule ( COc1cccc2c1C(=O)c1c(O)c3c(c(O)c1C2=O)C[C@@](O)(C(=O)CO)C[C@@H]3O[C@H]1C[C@H](NC(=O)[C@H](CC(C)C)NC(=O)[C@H](CO)NC(=O)[C@H](CO)NC(=O)[C@H](CO)NC(=O)[C@H](CCC(N)=O)NC(=O)[C@H](Cc2ccc(O)cc2)NC(=O)[C@H](CO)NC(=O)[C@H](C)NC(=O)[C@H](CCCCN)NC(=O)[C@H](CC(N)=O)NC(=O)[C@H](C)NC(C)=O)[C@H](O)[C@H](C)O1 (Ac-ANKASYQSSSL-{Doxorubicin(3'-N)}) ) has half-life equal to 30

Per the records, this molecule ( COc1cccc2c1C(=O)c1c(O)c3c(c(O)c1C2=O)C[C@@](O)(C(=O)CO)C[C@@H]3O[C@H]1C[C@H](NC(=O)[C@H](CC(C)C)NC(=O)[C@H](CO)NC(=O)[C@H](C)NC(=O)[C@H](CO)NC(=O)[C@H](CCC(N)=O)NC(=O)[C@H](Cc2ccc(O)cc2)NC(=O)[C@H](CO)NC(=O)[C@H](C)NC(=O)[C@H](CCCCN)NC(=O)[C@H](CC(N)=O)NC(=O)[C@H](C)NC(C)=O)[C@H](O)[C@H](C)O1 (Ac-ANKASYQSASL-{Doxorubicin(3'-N)}) ) has half-life equal to 30

Per the records, this molecule ( COc1cccc2c1C(=O)c1c(O)c3c(c(O)c1C2=O)C[C@@](O)(C(=O)CO)C[C@@H]3OC1CC(NC(=O)[C@H](CC(C)C)NC(=O)[C@H](CO)NC(=O)[C@@H](CCC(N)=O)NC(=O)[C@@H](NC(=O)[C@H](CO)NC(=O)[C@H](C)NC(=O)C2CC(O)CN2C(=O)CCC(=O)O)C2CCCCC2)C(O)C(C)O1 (stereo partly specified) ) has half-life equal to 55
